Source of measurements: paper PMC3204421

STUDY_SYSTEM: GIRK1/GIRK2 channels (AtT20 cells) (Mus musculus, UniProt P48542+P63250)
Sequence (P63250 1-501): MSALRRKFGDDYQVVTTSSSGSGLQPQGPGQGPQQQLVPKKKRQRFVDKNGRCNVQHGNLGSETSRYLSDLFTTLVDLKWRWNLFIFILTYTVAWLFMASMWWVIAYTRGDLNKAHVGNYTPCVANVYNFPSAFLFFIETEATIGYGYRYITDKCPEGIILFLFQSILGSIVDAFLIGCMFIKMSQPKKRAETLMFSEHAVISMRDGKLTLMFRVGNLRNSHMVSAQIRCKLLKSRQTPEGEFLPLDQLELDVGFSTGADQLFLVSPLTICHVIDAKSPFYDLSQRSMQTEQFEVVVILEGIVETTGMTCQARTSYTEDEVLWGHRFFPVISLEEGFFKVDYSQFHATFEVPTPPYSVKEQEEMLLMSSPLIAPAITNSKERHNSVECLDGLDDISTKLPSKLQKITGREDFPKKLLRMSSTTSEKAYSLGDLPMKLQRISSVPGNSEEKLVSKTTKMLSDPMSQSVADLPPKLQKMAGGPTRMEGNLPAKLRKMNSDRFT
Sequence (P48542 1-425): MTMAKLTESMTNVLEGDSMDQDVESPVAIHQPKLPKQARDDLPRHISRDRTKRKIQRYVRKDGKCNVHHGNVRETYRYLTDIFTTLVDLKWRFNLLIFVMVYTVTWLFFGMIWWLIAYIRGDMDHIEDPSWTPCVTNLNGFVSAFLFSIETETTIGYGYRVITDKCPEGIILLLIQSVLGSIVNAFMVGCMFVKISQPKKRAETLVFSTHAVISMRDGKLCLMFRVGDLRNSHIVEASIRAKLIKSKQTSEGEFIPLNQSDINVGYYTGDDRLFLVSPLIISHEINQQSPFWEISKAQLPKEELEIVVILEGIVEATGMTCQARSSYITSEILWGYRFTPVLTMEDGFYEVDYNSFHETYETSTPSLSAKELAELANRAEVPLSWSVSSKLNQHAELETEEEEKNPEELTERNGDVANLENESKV
ASSAY_METHOD_TEXT: GIRK channel fluorescent plate reader assay

[
  {
    "LINE_NOTATION": "Cc1nc2c(OCc3ccccc3)cccn2c1CC#N",
    "STUDY_SYSTEM": "GIRK1/GIRK2 channels (AtT20 cells) (Mus musculus, UniProt P48542+P63250)",
    "IC50 [µM]": 0.2
  }
]
